B1: Twister Ribozyme (parent)
chain: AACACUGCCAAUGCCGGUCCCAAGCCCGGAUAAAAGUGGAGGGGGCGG

- Variants of: B1
- EXPERIMENT NOTES: self-cleavage, relative activity (ratio to wild type); higher = more cleavage; co-transcriptional
Class assignment keyed on self-cleavage, ranges LOW = under 0.1, MEDIUM = from 0.1 up to 0.8, HIGH = 0.8 and over

Below, 5 variants whose answers are already recorded.
{"ALTERATION": "U37A", "GROUP LABEL": "HIGH"}
{"ALTERATION": "G29U G45C", "GROUP LABEL": "MEDIUM"}
{"ALTERATION": "C9U G38A", "GROUP LABEL": "MEDIUM"}
{"ALTERATION": "C25G C27G", "GROUP LABEL": "LOW"}
{"ALTERATION": "A35C G38A", "GROUP LABEL": "HIGH"}

QUERY: Consider A30G G41A . To which self-cleavage class does it belong?
RESULT: MEDIUM

QUERY: C20A A40U ?
RESULT: MEDIUM

QUERY: A22C G41U ?
RESULT: MEDIUM
